Provide the reported T/C of each item.
Tested on: L1210 leukemia ip in BDF1 mice, survival T/C
assay overview: NCI In Vivo Anticancer Drug Screen. Data for tumor model L1210 Leukemia (intraperitoneal) in B6D2F1 (BDF1) mice
experimental setup: endpoint: mean survival time; dose: 200.0 mg/kg/injection; schedule: Q04DX002 (ip); vehicle: saline; higher = longer survival
Inconclusive results and toxic doses are left out.

input: State recorded T/C with L1210 leukemia ip in BDF1 mice, survival T/C, entry Nc1ccc(F)c(Cl)c1 , no comment.
output: 98 % of control

input: // fetch T/C; item: CCCCNC(N)=O ; system: L1210 leukemia ip in BDF1 mice, survival T/C
output: 96 % of control

input: Identify measured T/C obtained with L1210 leukemia ip in BDF1 mice, survival T/C for Clc1ccc(Cl)nn1 .
output: 87 % of control

input: Specify the recorded T/C for O=C(O)CSC(SCC(=O)O)c1ccc(Cl)cc1Cl , system: L1210 leukemia ip in BDF1 mice, survival T/C.
output: 98 % of control

input: Under L1210 leukemia ip in BDF1 mice, survival T/C, report T/C for C[N+]1=NN(c2nc[nH]c2C(N)=O)CC1
output: 100 % of control

input: State T/C (L1210 leukemia ip in BDF1 mice, survival T/C) of Cc1cc(-c2ccccc2O)nc(N)n1 .
output: 94 % of control

input: Provide the reported T/C (system: L1210 leukemia ip in BDF1 mice, survival T/C) for CC(C)CC(=O)c1ccccc1
output: 111 % of control

input: Look up and report T/C, with L1210 leukemia ip in BDF1 mice, survival T/C as system, for CCS(=O)CC
output: 89 % of control

input: Using L1210 leukemia ip in BDF1 mice, survival T/C as the test system, report measured T/C of NC1CC(=O)NC1=O (stereo unspecified) .
output: 100 % of control

input: # lookup: L1210 leukemia ip in BDF1 mice, survival T/C T/C, key = NCCCN1CCCN=C1C1=NCCCN1CCCN
output: 100 % of control

input: System L1210 leukemia ip in BDF1 mice, survival T/C. Read-out T/C. Item O=c1cccc[nH]1 . Report value.
output: 100 % of control

* * *

Exercise: state measured T/C for each of the compounds provided.
System: L1210 leukemia ip in BDF1 mice, survival T/C
assay overview: NCI In Vivo Anticancer Drug Screen. Data for tumor model L1210 Leukemia (intraperitoneal) in B6D2F1 (BDF1) mice
experimental setup: endpoint: mean survival time; dose: 200.0 mg/kg/injection; schedule: Q01DX001 (ip); vehicle: saline; higher = longer survival
Toxic doses and inconclusive results are not listed.

input: Specify T/C for CC(C)(N)CN and stop.
output: 96 % of control

input: Assign T/C to the following record: C=CC(=O)N(C)OC
output: 96 % of control

input: Answer with reported T/C of O=S(=O)(O)CBr
output: 106 % of control

input: Kindly indicate its recorded T/C. Item: CCOc1ccc(NC(=O)OCCN2CCN(CCc3ccccc3)C(C)C2)cc1 (stereo not drawn)
output: 95 % of control

input: State, in one line, measured T/C of O=C(CCCNC(=O)OCc1ccccc1)NCCCCCCNCCCCCCNC(=O)CCCNC(=O)OCc1ccccc1
output: 98 % of control

input: // Input: CC(=O)Oc1cc(C)[nH]c(=O)c1 . Output its T/C only.
output: 105 % of control

input: In one line, give reported T/C of the entry CCCCNc1nc(N)nc2c1nnn2C1OC(CO)C(O)C1O (stereo not drawn) .
output: 101 % of control

input: Provide measured T/C value, entry: CCCCN=C(N)c1ccc(S(=O)(=O)N=C(N)N)cc1
output: 101 % of control

input: Please indicate T/C recorded for CCOC(=O)C(OC(=O)c1ccccc1)(OC(=O)c1ccccc1)C(=O)OCC
output: 93 % of control

input: Respond only with T/C recorded for O=S(=O)(O)C(O)c1ccccc1O (stereo not drawn)
output: 103 % of control

input: Report T/C for O=S1(=O)CCS(=O)(=O)C12CCCCC2
output: 107 % of control

input: Give a short answer stating reported T/C for c1ccc2c(c1)NC(c1cccc3ccccc13)S2 (stereo not drawn) .
output: 100 % of control

input: Give recorded T/C. CCCCc1cccc2c1OCO2
output: 103 % of control

* * *

What T/C was measured for each of the following?
Tested on: L1210 leukemia ip in BDF1 mice, survival T/C
assay overview: NCI In Vivo Anticancer Drug Screen. Data for tumor model L1210 Leukemia (intraperitoneal) in B6D2F1 (BDF1) mice
experimental setup: endpoint: mean survival time; dose: 100.0 mg/kg/injection; schedule: Q04DX002 (ip); vehicle: Klucel (hydroxypropylcellulose) (HPC); higher = longer survival
Toxic doses and inconclusive results are not listed.

input: Return T/C (reported value) for this molecule: COc1ccc(/C=N/NC(=O)c2ccccc2N)cc1
output: 98 % of control

input: Name the recorded T/C of the molecule listed here: Cc1cccc([N+](=O)[O-])c1O
output: 99 % of control

input: Give T/C for the following molecule: CCOC(=O)C1(C(=O)OCC)CC(C)C(=O)N1c1ccccc1OC (stereo unspecified)
output: 100 % of control

input: Provide T/C value for the following molecule: Fc1c(F)c(F)c(P(c2ccccc2)c2ccccc2)c(F)c1F
output: 95 % of control

input: Give recorded T/C. CC(=O)O[C@H]1CC[C@@]2(C)[C@@H](CC[C@@H]3[C@@H]2CC[C@]2(C)[C@@H](C(C)=O)CC[C@@H]32)C1
output: 96 % of control

input: Query T/C for CC(=O)OCC(O)C(O)C(O)C(O)C=O (stereo unspecified) (tested in a mixture with another compound)
output: 92 % of control

input: Give me measured T/C, please, for this molecule: NC(=S)N/N=C/c1c(Cl)n(C(=O)c2ccc(Cl)cc2)c2ccccc12
output: 87 % of control

input: State, in one line, measured T/C of CC(C(=O)c1ccccc1)c1ccccc1 (stereo unspecified)
output: 106 % of control

input: Determine from records and report T/C for COC1CCC(CCNC(N)=O)CC1OC (stereo unspecified)
output: 100 % of control

input: Return T/C (reported value) for this molecule: O/N=C(/C(=N/O)c1ccccc1)c1ccccc1.O/N=C(/C(=N/O)c1ccccc1)c1ccccc1.[Pd]
output: 95 % of control

input: For the molecule CCCCNC(=S)NCCCC , report T/C.
output: 98 % of control

* * *

Test system: L1210 leukemia ip in BDF1 mice, survival T/C
assay overview: NCI In Vivo Anticancer Drug Screen. Data for tumor model L1210 Leukemia (intraperitoneal) in B6D2F1 (BDF1) mice
experimental setup: endpoint: mean survival time; dose: 400.0 mg/kg/injection; schedule: Q01DX001 (ip); vehicle: saline; higher = longer survival
Inconclusive results and toxic doses are left out.
experimental readout: T/C

input: Quickly give me recorded T/C for COC1OCC(OC(C)=O)C(NC(C)=O)C1OC(C)=O (stereo not drawn)
output: 111 % of control

input: Item NC1C(O)CCCC1O (stereo not drawn) : provide T/C
output: 102 % of control

input: Supply T/C value. Item: CC1(C)CC(O)CC(O)C1 (stereo not drawn)
output: 95 % of control

input: Query T/C for CCN(CC)CCOC(=O)c1cc2ccccc2s1
output: 96 % of control

input: Provide measured T/C value, entry: COC(=O)C(Nc1ccc([N+](=O)[O-])cc1[N+](=O)[O-])C(C)OS(=O)(=O)c1ccc(C)cc1 (stereo not drawn)
output: 92 % of control

input: Provide T/C value for the following molecule: O=S(=O)(O)C(O)c1ccccc1O (stereo not drawn)
output: 102 % of control

input: Complete the entry with T/C for O=C1c2ccccc2C(=O)N1[N+](=O)[O-]
output: 103 % of control

input: Annotate the molecule OCC(O)C(O)C(O)C(c1ccc(F)cc1)c1ccc(F)cc1 (stereo not drawn) with its measured T/C.
output: 103 % of control

input: Consider the molecule Cc1ccccc1S(=O)(=O)/C(=C(/I)c1ccccc1)c1ccccc1 . State its measured T/C.
output: 95 % of control

input: Check the records and state T/C for CC1CN1P(=O)(N1CC=CCC1)N1CC1C (stereo not drawn)
output: 91 % of control

input: Given C=C1CC2CC(C)CCC2OC1=O (stereo not drawn) , respond with its T/C.
output: 98 % of control

input: Answer with reported T/C of O=[N+]([O-])c1ccc(Cl)cc1/C=N/NC(=S)Nc1cccc2cccnc12
output: 100 % of control

input: Look up T/C of CC1(C)OC(=O)CC1c1ccc(Cl)cc1 (stereo not drawn) and report it.
output: 106 % of control
